- measuredTarget: human serotonin transporter (Homo sapiens, UniProt P31645)
- Construct: purchased PerkinElmer; host or cells: HEK-293 cells
- Sequence (P31645 whole entry): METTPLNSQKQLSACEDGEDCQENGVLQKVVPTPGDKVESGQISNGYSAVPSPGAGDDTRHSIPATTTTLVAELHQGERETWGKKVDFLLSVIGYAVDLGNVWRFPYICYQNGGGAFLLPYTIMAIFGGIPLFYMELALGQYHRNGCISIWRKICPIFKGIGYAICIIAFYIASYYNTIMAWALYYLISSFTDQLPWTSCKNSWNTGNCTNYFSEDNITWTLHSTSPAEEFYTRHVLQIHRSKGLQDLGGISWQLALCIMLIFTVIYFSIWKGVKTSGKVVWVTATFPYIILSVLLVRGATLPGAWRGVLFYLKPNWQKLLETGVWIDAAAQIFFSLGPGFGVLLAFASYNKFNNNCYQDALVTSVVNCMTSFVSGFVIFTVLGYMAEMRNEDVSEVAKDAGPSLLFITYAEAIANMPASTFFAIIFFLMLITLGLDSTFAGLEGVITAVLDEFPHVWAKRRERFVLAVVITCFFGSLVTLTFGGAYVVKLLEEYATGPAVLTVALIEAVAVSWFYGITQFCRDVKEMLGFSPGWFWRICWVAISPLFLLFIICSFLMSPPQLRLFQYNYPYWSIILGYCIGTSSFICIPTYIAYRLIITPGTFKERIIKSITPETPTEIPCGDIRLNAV
- protocol: Binding affinity for serotonin transporter ([3H]Imipramine)
- conditionDescription: HEK-293 membrane, 2 nM [3H]Imipramine; read-out: binding affinity Serotonin Transporter
- Protocol: For serotonin transporter binding assays, a reaction mixture with a final volume of 0.25 ml was prepared by mixing a test compound, human serotonin transporter membrane expressed in HEK-293 cells (PerkinElmer, 5 μg/well), [^3H] Imipramine (PerkinElmer, 2 nM) and 50 mM Tris-HCl (pH 7.4) buffer containing 120 mM NaCl and 5 mM KCl. […]
readoutType: IC50
Answer as a quantity: numeral, then unit.

Solved entries (count: 3):
# compound, measuredTarget, IC50
rows = [
    ("CCc1nc2c(NCC(O)CN3CCN(c4cccc(C)c4C)CC3)ncnc2n1-c1ccc2c(c1)OCO2 (stereo not drawn)", "human serotonin transporter (Homo sapiens, UniProt P31645)", "18 nM"),
    ("Cc1cccc(N2CCN(CCCNc3ncnc4c3nc(-c3ccccc3)n4-c3ccc4c(c3)OCO4)CC2)c1C", "human serotonin transporter (Homo sapiens, UniProt P31645)", "42 nM"),
    ("CCc1nc2c(NCCN3CCN(c4cccc(C)c4C)CC3)ncnc2n1-c1ccc(SC)cc1.Cl [Example 87, hydrochloride]", "human serotonin transporter (Homo sapiens, UniProt P31645)", "136 nM"),
]

// moving on: another record for IC50
Briefly, IC50 measured for "CCc1nc2c(NCCCN3CCN(c4cccc(C)c4C)CC3)ncnc2n1-c1ccc2c(c1)OCO2" : 21 nM

# credit: patent US8785453B2
